B1: Intersectin-1, residues 909 to 971; numbered along this chain, Q15811 (parent)
chain: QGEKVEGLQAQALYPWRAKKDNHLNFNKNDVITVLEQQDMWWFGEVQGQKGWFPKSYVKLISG

# Variants of: B1
# Test summary: abundance fitness (aPCA) (normalised: wild type 0, dead -1); higher = more abundant; growth selection in yeast, the domain comes from the species named
# Run parameters: Homo sapiens
// label = 1 (yes) if abundance fitness is not less than -0.3, otherwise 0 (no)

In: Does the variant K28V have recorded abundance fitness that is -0.3 or more?
Out: 1 (yes)

In: Is abundance fitness at least -0.3? Consider E3N
Out: 1 (yes)

In: Threshold query (abundance fitness >= -0.3) on V46K
Out: 1 (yes)

In: Form field: abundance fitness at least -0.3? Entry: G48R
Out: 1 (yes)

In: Reported abundance fitness reaches at least -0.3 for D21M ?
Out: 0 (no)

In: Form field: abundance fitness at least -0.3? Entry: L60F
Out: 0 (no)

In: Could you please find out whether G48P has abundance fitness that meets -0.3 or exceeds it?
Out: 0 (no)

In: Hi team, for I61Y , is the recorded abundance fitness at or above -0.3?
Out: 1 (yes)

In: Entry S56Y : is its abundance fitness no less than -0.3?
Out: 1 (yes)
